target: Phosphatidylinositol 4,5-bisphosphate 3-kinase catalytic subunit gamma isoform (Homo sapiens, UniProt P48736); assay: biochemical
Sequence (P48736 whole entry, canonical isoform): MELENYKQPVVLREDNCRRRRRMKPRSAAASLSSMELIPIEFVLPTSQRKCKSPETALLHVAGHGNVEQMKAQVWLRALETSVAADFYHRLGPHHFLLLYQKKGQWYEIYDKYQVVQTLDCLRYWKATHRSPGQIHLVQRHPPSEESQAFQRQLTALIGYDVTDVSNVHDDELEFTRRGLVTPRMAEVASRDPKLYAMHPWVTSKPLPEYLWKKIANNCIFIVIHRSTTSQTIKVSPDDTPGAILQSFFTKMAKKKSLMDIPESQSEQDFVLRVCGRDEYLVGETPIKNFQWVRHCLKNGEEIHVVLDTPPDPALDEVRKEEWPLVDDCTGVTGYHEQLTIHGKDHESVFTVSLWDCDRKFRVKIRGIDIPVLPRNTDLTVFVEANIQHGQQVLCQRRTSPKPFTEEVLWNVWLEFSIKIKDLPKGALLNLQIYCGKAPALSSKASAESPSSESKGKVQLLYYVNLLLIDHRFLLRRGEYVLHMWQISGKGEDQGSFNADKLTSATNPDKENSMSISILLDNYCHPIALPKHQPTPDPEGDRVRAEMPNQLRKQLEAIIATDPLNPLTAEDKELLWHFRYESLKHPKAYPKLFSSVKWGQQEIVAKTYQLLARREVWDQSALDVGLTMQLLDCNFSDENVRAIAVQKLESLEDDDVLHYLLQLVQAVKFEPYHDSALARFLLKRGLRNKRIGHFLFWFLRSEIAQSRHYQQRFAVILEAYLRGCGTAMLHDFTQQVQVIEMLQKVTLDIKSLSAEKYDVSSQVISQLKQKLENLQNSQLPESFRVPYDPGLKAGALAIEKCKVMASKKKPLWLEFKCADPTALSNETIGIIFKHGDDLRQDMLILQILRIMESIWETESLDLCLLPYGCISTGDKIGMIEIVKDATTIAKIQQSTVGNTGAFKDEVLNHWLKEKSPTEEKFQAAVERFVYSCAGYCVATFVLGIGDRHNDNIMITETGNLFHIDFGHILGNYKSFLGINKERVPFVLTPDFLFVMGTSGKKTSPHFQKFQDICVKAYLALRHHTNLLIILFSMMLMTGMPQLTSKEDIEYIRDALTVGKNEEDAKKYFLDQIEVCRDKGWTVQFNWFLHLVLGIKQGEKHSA
Description: Inhibition of human recombinant full length N-terminal His-tagged PI3Kgamma expressed in Sf9 insect cells using diC8PIP2 as substrate incubated for 15 mins followed by substrate addition measured after 2 hr by ADP-Glo luminescence assay
pIC50 reference
By convention, pIC50 is the negative base-10 log of a molar concentration.

- C[C@H](NC(=O)c1c(N)nn2cccnc12)c1cc2cccc(N(C)C)c2c(=O)n1-c1ccccc1: 5.96

Problem: For the compound "CC#Cc1cccc2cc([C@H](C)NC(=O)c3c(N)nn4cccnc34)n(-c3ccccc3)c(=O)c12" , what pIC50 is on record?
Result: 7.60

Problem: For the compound "CNc1cccc2cc([C@H](C)NC(=O)c3c(N)nn4cccnc34)n(-c3ccccc3)c(=O)c12" , what pIC50 is on record?
Result: 5.96

Problem: For the compound "C[C@H](NC(=O)c1c(N)nn2cccnc12)c1cc2cccc(C#Cc3ccn(C)n3)c2c(=O)n1-c1ccccc1" , what pIC50 is on record?
Result: 7.00

Problem: For the compound "C[C@H](NC(=O)c1c(N)nn2cccnc12)c1cc2cccc(F)c2c(=O)n1-c1ccccc1" , what pIC50 is on record?
Result: 7.30

Problem: For the compound "C[C@H](NC(=O)c1cncc2cccnc12)c1cc2cccc(Cl)c2c(=O)n1-c1ccccc1" , what pIC50 is on record?
Result: 6.00

Problem: For the compound "C[C@H](NC(=O)c1c(N)nn2cccnc12)c1cc2cccc(C#Cc3cncs3)c2c(=O)n1-c1ccccc1" , what pIC50 is on record?
Result: 6.96
